test: Stability Test-1: residual rate of 1% aqueous solutions stored at 50° C. (HPLC); assay type: physicochemical; settings: water; pH 3, 50° C., after 2 weeks, 1% aqueous solution; read-out: Residual Rate
// reported remaining at 336 h for each item listed

Examples with their reported remaining at 336 h follow.
> print(dat)
                                   molecule  observed.result
1  O=C1O[C@H]([C@@H](O)CO)C(OCC(O)CO)=C1OCC(O)CO (some centres unmarked) [Bisglyceryl ascorbic acid, reference compound]            ≥ 80%
2  O=C1OC(C(O)CO)C2=C1OC(CO)CO2 (centres unmarked) [Synthesis Example 5]            ≥ 80%
3           O=C1O[C@H]([C@@H](O)CO)C(O)=C1O        50 to 80%
4  O=C1OC(C(O)CO)C2=C1OCCCCO2 (centres unmarked) [Synthesis Example 3, 2,3-O-(1,4-butanediyl) ascorbic acid]            ≥ 80%
5  O=C1OC(C(O)CO)C2=C1OCC1(COC1)CO2 (centres unmarked) [Synthesis Example 6]            ≥ 80%

Ask | // query remaining at 336 h value for entry O=C1OC(C(O)CO)C2=C1OCCO2 (centres unmarked) [Synthesis Example 1, 2,3-O-(1,2-ethanediyl) ascorbic acid]
Reply | ≥ 80%

Ask | What do you get for O=C1OC(C(O)CO)C2=C1OCC(O)CO2 (centres unmarked) [Synthesis Example 4] ?
Reply | ≥ 80%

Ask | What do you get for O=C1OC(C(O)CO)C2=C1OCCCO2 (centres unmarked) [Synthesis Example 2, 2,3-O-(1,3-propanediyl) ascorbic acid] ?
Reply | ≥ 80%

----------
// reported remaining at 672 h for each item listed
assay: Stability Test-1: residual rate of 1% aqueous solutions stored at 50° C. (HPLC); assay type: physicochemical; conditions: water; pH 8, 50° C., after 4 weeks, 1% aqueous solution

Examples with their reported remaining at 672 h follow.
> print(dat)
                                   compound  observed.result
1  O=C1O[C@H]([C@@H](O)CO)C(OCC(O)CO)=C1OCC(O)CO (some centres unmarked) [Bisglyceryl ascorbic acid, reference compound]            < 30%
2  O=C1OC(C(O)CO)C2=C1OCC1(COC1)CO2 (centres unmarked) [Synthesis Example 6]        30 to 50%
3  O=C1OC(C(O)CO)C2=C1OC(CO)CO2 (centres unmarked) [Synthesis Example 5]        30 to 50%

Ask | // query remaining at 672 h value for entry O=C1OC(C(O)CO)C2=C1OCCCO2 (centres unmarked) [Synthesis Example 2, 2,3-O-(1,3-propanediyl) ascorbic acid]
Reply | 50 to 80%

Ask | What do you get for O=C1OC(C(O)CO)C2=C1OCC(O)CO2 (centres unmarked) [Synthesis Example 4] ?
Reply | 30 to 50%

----------
assay: Stability Test-1: residual rate of 1% aqueous solutions stored at 50° C. (HPLC); type: physicochemical; conditions: water; pH 3, 50° C., after 4 weeks, 1% aqueous solution
endpoint_label: remaining at 672 h

Examples with their reported remaining at 672 h follow.
> print(dat)
                                   compound  observed.result
1  O=C1OC(C(O)CO)C2=C1OCCO2 (stereo not drawn) [Synthesis Example 1, 2,3-O-(1,2-ethanediyl) ascorbic acid]            ≥ 80%
2  O=C1OC(C(O)CO)C2=C1OCCCCO2 (stereo not drawn) [Synthesis Example 3, 2,3-O-(1,4-butanediyl) ascorbic acid]            ≥ 80%

Continue with the next compound.
Ask | // query remaining at 672 h value for entry O=C1OC(C(O)CO)C2=C1OCCCO2 (stereo not drawn) [Synthesis Example 2, 2,3-O-(1,3-propanediyl) ascorbic acid]
Reply | ≥ 80%
